Ref: paper PMC10653080

Assay: PP-LFER solute descriptor determination from GC retention and partition coefficient data
Type: physicochemical
Details: 25 °C; updated in the iterative calculation
Would you mind classing the entries by Solute descriptor L (logarithmic hexadecane/air partition coefficient, KHxd/air)? Ranges: range 1: < 3; range 2: ≥ 3 and < 4; range 3: ≥ 4

Challenge: Tag the class for NS(=O)(=O)C(F)(F)C(F)(F)C(F)(F)C(F)(F)F [PFBSA, Perfluorobutanesulfonamide]
Response given: range 2

Challenge: Tag the class for OCCC(F)(F)C(F)(F)C(F)(F)C(F)(F)F [4:2 FTOH, 1H,1H,2H,2H-Perfluorohexan-1-ol]
Response given: range 1

###

Test: PP-LFER solute descriptor determination from GC retention and partition coefficient data
Type: physicochemical
Conditions: final adjusted value; shared within a PFAS group
Classify by measured Solute descriptor S (dipolarity/polarizability parameter): Yes if it is equal to or exceeds 0.3, No if it is smaller.

Look over these answered cases.
compound="FC(F)(F)C(F)(F)C(F)(F)C(F)(F)C(F)(F)C(F)(F)CCI [6:2 FTI, 1H,1H,2H,2H-Perfluorooctyl iodide]" class_name=Yes
compound="CNS(=O)(=O)C(F)(F)C(F)(F)C(F)(F)C(F)(F)C(F)(F)C(F)(F)F [MeFHxSA, N-Methylperfluorohexanesulfonamide]" class_name=Yes
compound="C=Cc1ccc(C(F)(F)C(F)(F)C(F)(F)C(F)(F)C(F)(F)C(F)(F)C(F)(F)C(F)(F)F)cc1 [PFOSt, 4-(Perfluorooct-1-yl)styrene]" class_name=Yes
compound="FC(F)(F)C(F)(F)C(F)(F)C(F)(F)C(F)(F)C(F)(F)C(F)(F)C(F)(F)C(F)(F)F [PFN, Perfluorononane]" class_name=No

Now for another entry.
Challenge: # bool: Solute descriptor S (dipolarity/polarizability parameter) of C=C(C)C(=O)OCCC(F)(F)C(F)(F)C(F)(F)C(F)(F)F [4:2 FTMAC, 1H,1H,2H,2H-Perfluorohexyl methacrylate] >= 0.3
Response given: Yes

###

// reported Solute descriptor L (logarithmic hexadecane/air partition coefficient, KHxd/air) per item
Assay: PP-LFER solute descriptor determination from GC retention and partition coefficient data
Assay type: physicochemical
Conditions: 25 °C; updated in the iterative calculation
Enter a number only.

Below, each entry is followed by its recorded Solute descriptor L (logarithmic hexadecane/air partition coefficient, KHxd/air) result.
molecule="OCCCC(F)(F)C(F)(F)C(F)(F)F [3:3 FTOH, 4,4,5,5,6,6,6-Heptafluorohexan-1-ol]" assay_value=2.710
molecule="OCC(F)(F)C(F)(F)C(F)(F)C(F)(F)C(F)(F)C(F)(F)C(F)(F)F [7:1 FTOH, 1H,1H-Perfluorooctan-1-ol]" assay_value=2.715
molecule="C=CC(F)(F)C(F)(F)C(F)(F)C(F)(F)C(F)(F)C(F)(F)F [6:2 FTO, 1H,1H,2H-Perfluoro-1-octene]" assay_value=2.022
molecule="FC(F)(F)C(F)(F)C(F)(F)C(F)(F)C(F)(F)C(F)(F)CCI [6:2 FTI, 1H,1H,2H,2H-Perfluorooctyl iodide]" assay_value=3.892
molecule="OCCCCC(F)(F)C(F)(F)C(F)(F)C(F)(F)F [4:4 FTOH, 5,5,6,6,7,7,8,8,8-Nonafluorooctan-1-ol]" assay_value=3.499
molecule="C=CC(F)(F)C(F)(F)C(F)(F)C(F)(F)C(F)(F)C(F)(F)C(F)(F)C(F)(F)C=C [1,8-DVPFO, 1,8-Divinylperfluorooctane]" assay_value=3.927

We next turn to a different molecule, shown below.
Challenge: Read the entry FC(F)(F)C(F)(F)C(F)(F)C(F)(F)C(F)(F)C(F)(F)C(F)(F)C(F)(F)I [PFOI, Perfluorooctyl iodide] and write its reported Solute descriptor L (logarithmic hexadecane/air partition coefficient, KHxd/air).
Response given: 3.068

###

// reported Solute descriptor L (logarithmic hexadecane/air partition coefficient, KHxd/air) per item
Assay: PP-LFER solute descriptor determination from GC retention and partition coefficient data
Type: physicochemical
Enter a number only.

Below, each entry is followed by its recorded Solute descriptor L (logarithmic hexadecane/air partition coefficient, KHxd/air) result.
compound="FC(OC(F)(F)C(F)(OC(F)(F)C(F)(OC(F)(F)C(F)(OC(F)(F)C(F)(F)C(F)(F)F)C(F)(F)F)C(F)(F)F)C(F)(F)F)C(F)(F)F (centres unmarked)" assay_value=2.542
compound="C=C(C)C(=O)OCCC(F)(F)C(F)(F)C(F)(F)C(F)(F)C(F)(F)C(F)(F)C(F)(F)C(F)(F)F [8:2 FTMAC, 1H,1H,2H,2H-Perfluorodecyl methacrylate]" assay_value=5.115
compound="CC(=O)OCCC(F)(F)C(F)(F)C(F)(F)C(F)(F)C(F)(F)C(F)(F)C(F)(F)C(F)(F)F [8:2 FTAce, 1H,1H,2H,2H-Perfluorodecyl acetate]" assay_value=4.234
compound="CCNS(=O)(=O)C(F)(F)C(F)(F)C(F)(F)C(F)(F)C(F)(F)C(F)(F)C(F)(F)C(F)(F)F [EtFOSA, N-Ethylperfluorooctanesulfonamide]" assay_value=4.967

We next turn to a different compound, shown below.
Challenge: Read the entry "CCN(CCO)S(=O)(=O)C(F)(F)C(F)(F)C(F)(F)C(F)(F)C(F)(F)C(F)(F)C(F)(F)C(F)(F)F" and write its reported Solute descriptor L (logarithmic hexadecane/air partition coefficient, KHxd/air).
Response given: 6.253

###

Experiment: PP-LFER solute descriptor determination from GC retention and partition coefficient data
Format: physicochemical
Conditions: final adjusted value; shared within a PFAS group
// reported Solute descriptor S (dipolarity/polarizability parameter) per item

compound=C=CCOCC(F)(F)C(F)(F)C(F)(F)C(F)(F)C(F)(F)C(F)(F)C(F)(F)F assay_value=0.30
compound="FC(F)(F)C(F)(F)C(F)(F)C(F)(F)C(F)(F)C(F)(F)C(F)(F)C(F)(F)C(F)(F)C(F)(F)CCI [10:2 FTI, 1H,1H,2H,2H-Perfluorododecyl iodide]" assay_value=0.32
compound="FC(F)(F)C(F)(F)C(F)(F)C(F)(F)C(F)(F)C(F)(F)C(F)(F)I [PFHpI, Perfluoroheptyl iodide]" assay_value=0.07

Challenge: Read the entry "OCCC(F)(F)C(F)(F)C(F)(F)C(F)(F)C(F)(F)C(F)(F)F" and write its reported Solute descriptor S (dipolarity/polarizability parameter).
Response given: 0.35

###

Assay: PP-LFER solute descriptor determination from GC retention and partition coefficient data
Format: physicochemical
Conditions: final adjusted value; shared within a PFAS group
// reported Solute descriptor S (dipolarity/polarizability parameter) per item
Enter a number only.

Below, each entry is followed by its recorded Solute descriptor S (dipolarity/polarizability parameter) result.
compound="OCC(F)(F)C(F)(F)C(F)(F)F [3:1 FTOH, 1H,1H-Perfluorobutan-1-ol]" assay_value=0.30
compound="OCCC(F)(F)C(F)(F)C(F)(F)C(F)(F)C(F)(F)C(F)(F)C(F)(F)C(F)(F)F [8:2 FTOH, 1H,1H,2H,2H-Perfluorodecan-1-ol]" assay_value=0.35
compound="FC(F)(F)C(F)(F)C(F)(F)C(F)(F)C(F)(F)C(F)(F)C(F)(F)C(F)(F)I [PFOI, Perfluorooctyl iodide]" assay_value=0.07

We next turn to a different compound, shown below.
Challenge: Read the entry FC(F)(F)C(F)(F)C(F)(F)C(F)(F)C(F)(F)C(F)(F)I [PFHxI, Perfluorohexyl iodide] and write its reported Solute descriptor S (dipolarity/polarizability parameter).
Response given: 0.07

###

Assay: PP-LFER solute descriptor determination from GC retention and partition coefficient data
Assay type: physicochemical
Details: 25 °C; updated in the iterative calculation
Classify by measured Solute descriptor L (logarithmic hexadecane/air partition coefficient, KHxd/air): class 1 if it is equal to or exceeds 4, class 0 if it is smaller.

Look over these answered cases.
compound="CNS(=O)(=O)C(F)(F)C(F)(F)C(F)(F)C(F)(F)C(F)(F)C(F)(F)C(F)(F)C(F)(F)F [MeFOSA, N-Methylperfluorooctanesulfonamide]" class_name="class 1"
compound=OCCC(F)(F)C(F)(F)C(F)(F)C(F)(F)C(F)(F)C(F)(F)F class_name="class 0"
compound=FC(F)(F)C(F)(F)C(F)(F)N(C(F)(F)C(F)(F)C(F)(F)F)C(F)(F)C(F)(F)C(F)(F)F class_name="class 0"
compound="FC(F)(F)C(F)(F)C(F)(F)C(F)(F)C(F)(F)C(F)(F)C(F)(F)C(F)(F)CCI [8:2 FTI, 1H,1H,2H,2H-Perfluorodecyl iodide]" class_name="class 1"

Challenge: # bool: Solute descriptor L (logarithmic hexadecane/air partition coefficient, KHxd/air) of FC(F)(F)C(F)(F)C(F)(F)C(F)(F)CCI [4:2 FTI, 1H,1H,2H,2H-Perfluorohexyl iodide] >= 4
Response given: class 0

Challenge: # bool: Solute descriptor L (logarithmic hexadecane/air partition coefficient, KHxd/air) of C=CC(=O)OCCC(F)(F)C(F)(F)C(F)(F)C(F)(F)C(F)(F)C(F)(F)C(F)(F)C(F)(F)F [8:2 FTAC, 1H,1H,2H,2H-Perfluorodecyl acrylate] >= 4
Response given: class 1
